Numbers sourced from ChEMBL document CHEMBL1909046.

# tgt: Mitogen-activated protein kinase 3 (Homo sapiens)
# Sequence (P27361 whole entry): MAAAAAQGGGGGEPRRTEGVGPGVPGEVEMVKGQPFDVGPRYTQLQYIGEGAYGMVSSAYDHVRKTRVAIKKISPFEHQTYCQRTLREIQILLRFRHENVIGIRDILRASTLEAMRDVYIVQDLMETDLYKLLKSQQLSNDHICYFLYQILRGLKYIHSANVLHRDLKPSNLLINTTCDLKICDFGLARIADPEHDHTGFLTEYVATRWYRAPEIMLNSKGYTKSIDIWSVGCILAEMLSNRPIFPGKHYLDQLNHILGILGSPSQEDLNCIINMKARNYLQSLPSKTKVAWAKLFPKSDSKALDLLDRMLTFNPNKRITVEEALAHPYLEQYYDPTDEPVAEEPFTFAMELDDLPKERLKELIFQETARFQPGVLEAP
# test_summary: DRUGMATRIX: Protein Serine/Threonine Kinase, ERK1 enzyme inhibition (substrate: Myelin Basic Protein)
# Parameters: species or system Escherichia coli
# condition_details: Not Active = under 50% inhibition at 10 µM; read-out: IC50
measured_parameter: pIC50
Remember, pIC50 is on a log scale: it is -log10 of the molar concentration.

Form: sequence = `CISPLATIN` ; pIC50 = 5.33

---

# tgt: Alpha-2C adrenergic receptor (Homo sapiens)
# Sequence (P18825 whole entry): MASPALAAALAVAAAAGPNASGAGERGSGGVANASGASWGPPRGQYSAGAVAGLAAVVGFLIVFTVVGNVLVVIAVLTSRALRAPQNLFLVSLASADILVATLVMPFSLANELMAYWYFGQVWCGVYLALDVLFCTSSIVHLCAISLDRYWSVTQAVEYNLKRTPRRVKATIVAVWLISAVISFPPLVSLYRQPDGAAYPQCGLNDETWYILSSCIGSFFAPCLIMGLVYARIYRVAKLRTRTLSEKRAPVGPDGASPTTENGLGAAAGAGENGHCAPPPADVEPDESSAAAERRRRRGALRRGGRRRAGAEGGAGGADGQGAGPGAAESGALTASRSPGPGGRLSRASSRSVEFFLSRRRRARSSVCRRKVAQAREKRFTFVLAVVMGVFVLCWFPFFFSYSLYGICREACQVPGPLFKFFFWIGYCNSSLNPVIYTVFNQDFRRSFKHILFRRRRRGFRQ
# test_summary: DRUGMATRIX: Adrenergic Alpha-2C radioligand binding (ligand: [3H] MK-912)
# Format: cell membranes, Sf9, Membrane
# condition_details: sf9
measured_parameter: IC50

Below, 6 compounds whose answers are already recorded.
INSERT INTO results (compound, tgt, experimental_result) VALUES
  ('NCC1(CC(=O)O)CCCCC1', 'Alpha-2C adrenergic receptor (Homo sapiens)', 'Not Active'),
  ('CCCC[C@@H](CC)COC(=O)c1ccccc1C(=O)OC[C@@H](CC)CCCC [BIS(2-ETHYLHEXYL)PHTHALATE]', 'Alpha-2C adrenergic receptor (Homo sapiens)', 'Not Active'),
  ('Nc1nc2c(ncn2COC(CO)CO)c(=O)[nH]1', 'Alpha-2C adrenergic receptor (Homo sapiens)', 'Not Active'),
  ('O=P1(NCCCl)OCCCN1CCCl (configuration not stated) [IFOSFAMIDE]', 'Alpha-2C adrenergic receptor (Homo sapiens)', 'Not Active'),
  ('CC1(C)[C@H]2CC[C@]1(C)C(=O)C2 [(-)-CAMPHOR]', 'Alpha-2C adrenergic receptor (Homo sapiens)', 'Not Active'),
  ('CC(CCc1ccccc1)NCC(O)c1ccc(O)c(C(N)=O)c1 (configuration not stated)', 'Alpha-2C adrenergic receptor (Homo sapiens)', 'Not Active');

NCCCC[C@H](N[C@@H](CCc1ccccc1)C(=O)O)C(=O)N1CCC[C@H]1C(=O)O [LISINOPRIL ANHYDROUS] tested on Alpha-2C adrenergic receptor (Homo sapiens) gave IC50: Not Active

IC50 for Alpha-2C adrenergic receptor (Homo sapiens) with input `NNC(=O)c1ccncc1` equals Not Active

Bench note, Alpha-2C adrenergic receptor (Homo sapiens): CCc1ccc(C(=O)C(C)CN2CCCCC2)cc1 (configuration not stated) , IC50 reads Not Active

Tested on Alpha-2C adrenergic receptor (Homo sapiens), the item `O=C1CN=C(c2ccccc2)c2cc([N+](=O)[O-])ccc2N1` showed IC50 equal to Not Active

# `CCC1(c2ccccc2)C(=O)NCNC1=O` with Alpha-2C adrenergic receptor (Homo sapiens): IC50 is Not Active

Lab entry: Alpha-2C adrenergic receptor (Homo sapiens) assay, compound CC[N+](CC)(CC)CCOc1cccc(OCC[N+](CC)(CC)CC)c1OCC[N+](CC)(CC)CC.[I-].[I-].[I-] [GALLAMINE TRIETHIODIDE] , IC50 = Not Active
